- Tested on: HepG2 cells
- experiment: Cytotoxicity against HepG2 cells
- Type: cell-based
So I've got a bunch of compounds here, and I need their log10 of EC50 values.
Please interpret these as log10 of EC50 where EC50 is in µM.

Exercise: I'd like to know its log10 of EC50. The compound in question is NCCCSc1ccc(NC(=O)Nc2ccc(SCCCN)c(C(F)(F)F)c2)cc1C(F)(F)F [Compound 274]
Key: 2.21

Exercise: I'd like to know its log10 of EC50. The compound in question is N=C(N)NCCCn1c2ccc(C3=CCN(C(=N)N)CC3)cc2c2cc(C3=CCN(C(=N)N)CC3)ccc21 [Compound 289]
Key: 2.63

Exercise: I'd like to know its log10 of EC50. The compound in question is CCn1c2ccc(C3CCN(C(=N)N)CC3)cc2c2cc(C3CCN(C(=N)N)CC3)ccc21 [Compound 285]
Key: 2.91

Exercise: I'd like to know its log10 of EC50. The compound in question is N=C(N)NCCCOc1cccc(-c2ccc(-c3cccc(OCCCNC(=N)N)c3)s2)c1 [Compound 244]
Key: 1.28

Exercise: I'd like to know its log10 of EC50. The compound in question is Cn1c(-c2ccc(CCCNC(=N)N)cc2)cnc1-c1ccc(CCCNC(=N)N)cc1 [Compound 267]
Key: 2.92
